Tested on: ATP;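 note: ATP exposure 15 min at 22 °C before imaging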
ASSAY_NOTES: switch fluorescence ratio, 500 uM ATP over buffer (Cy3 cluster intensity, sum of 5 cycles each) (fold (ratio)); higher = stronger signal-on switching upon ATP binding; sequences stand for … in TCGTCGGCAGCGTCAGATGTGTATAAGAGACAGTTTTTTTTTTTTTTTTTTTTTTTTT…TC
CONDITION_INFO: aptamer strand: ATP DNA aptamer (quencher-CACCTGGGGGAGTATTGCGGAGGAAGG + anchor), 100 nM annealed; ATP concentration: 500 uM
Examples of sequences with documented switch fluorescence ratio follow.
No unit in the answer, please; the number alone is enough.

In [3]: df
Out[3]:
   residue_string  observed
0      TGGCTCCATT      1.01
1      TCAGAGGCGG         1
2      CGGTTTTGTA     0.971
3      AGGGGAAAAG     0.993

# evaluate next
Looking up CCCGGTATAT , I found its switch fluorescence ratio recorded as 1.22

* * *

Below is a list of entries, each paired with its recorded switch fluorescence ratio value.
Tested on: ATP;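 note: ATP exposure 15 min at 22 °C before imaging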
ASSAY_NOTES: switch fluorescence ratio, 500 uM ATP over buffer (Cy3 cluster intensity, sum of 5 cycles each) (fold (ratio)); higher = stronger signal-on switching upon ATP binding; sequences stand for … in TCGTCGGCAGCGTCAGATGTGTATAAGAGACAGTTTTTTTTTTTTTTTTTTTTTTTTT…TC
CONDITION_INFO: aptamer strand: ATP DNA aptamer (quencher-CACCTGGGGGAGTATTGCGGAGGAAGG + anchor), 100 nM annealed; ATP concentration: 500 uM
I only need the number, thanks.

Below, each entry is followed by its recorded switch fluorescence ratio result.
In [3]: df
Out[3]:
   residue_string  observed
0      AAGGGGTTGA      1.01
1      CGTGCTAGTA      1.02
2      CTATCAACCG      1.04
3      GTACCATTTT     0.997
4      TCAGCGTTTC      1.05
5      TCTCCGGGGA      1.21

The observed switch fluorescence ratio for TTATGGTGCT when tested with ATP stands at 0.945

CCAGGGCGGC on ATP gives switch fluorescence ratio = 0.854

ATP data for AATGAAAGGG ; its switch fluorescence ratio: 0.988

* * *

System: ATP;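 note: ATP exposure 15 min at 22 °C before imaging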
ASSAY_NOTES: switch fluorescence ratio, 500 uM ATP over buffer (Cy3 cluster intensity, sum of 5 cycles each) (fold (ratio)); higher = stronger signal-on switching upon ATP binding; sequences stand for … in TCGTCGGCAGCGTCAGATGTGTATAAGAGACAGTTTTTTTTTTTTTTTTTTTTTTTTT…TC
CONDITION_INFO: aptamer strand: ATP DNA aptamer (quencher-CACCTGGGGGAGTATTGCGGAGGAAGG + anchor), 100 nM annealed; ATP concentration: 500 uM
Below is a list of entries, each paired with its recorded switch fluorescence ratio value.
Please respond with just the number, no unit label.

As a guide, the following entries are already answered.
In [3]: df
Out[3]:
   residue_string  observed
0      ATAAAAACCG      1.01
1      TATGTTGTCC     0.977
2      CTTTTTTAGA     0.975
3      TCGAAGTTTT         1
4      ACTTTTTGAG     0.996
5      CGGGGTTGGT      1.01

The sequence identified as CAGGGGGCCA registered its switch fluorescence ratio at 0.984

CAGCGGGGGC has a reported switch fluorescence ratio of 1.01

The recorded switch fluorescence ratio for entry TTGCCCCGTA equals 1.02

Consider GGATATCAAG . Its measured switch fluorescence ratio is 1.01

The value of switch fluorescence ratio measured for the sequence GAGGGCTTTT turned out to be 0.98

# switch fluorescence ratio of TCCAGTTGTA = 0.99

Quick note, switch fluorescence ratio for CAGTTAGACA landed at 0.99

According to the records, this sequence TCGGAGAGGA displays switch fluorescence ratio of 0.986

Record GGGAGGAGAC . Reported switch fluorescence ratio: 1.02

What the record says about GCCAGGGCGC : switch fluorescence ratio is 1.02

For this sequence ( ACTAGGGTTT ), measured switch fluorescence ratio is 1.02

The sequence CCGTTTGGTC showed switch fluorescence ratio equal to 1.02
